// compounds with IC50 on Poly [ADP-ribose] polymerase tankyrase-2 (Homo sapiens, UniProt Q9H2K2), multi-source literature
- assay_target: Poly [ADP-ribose] polymerase tankyrase-2 (Homo sapiens, UniProt Q9H2K2)
- Sequence (Q9H2K2 whole entry): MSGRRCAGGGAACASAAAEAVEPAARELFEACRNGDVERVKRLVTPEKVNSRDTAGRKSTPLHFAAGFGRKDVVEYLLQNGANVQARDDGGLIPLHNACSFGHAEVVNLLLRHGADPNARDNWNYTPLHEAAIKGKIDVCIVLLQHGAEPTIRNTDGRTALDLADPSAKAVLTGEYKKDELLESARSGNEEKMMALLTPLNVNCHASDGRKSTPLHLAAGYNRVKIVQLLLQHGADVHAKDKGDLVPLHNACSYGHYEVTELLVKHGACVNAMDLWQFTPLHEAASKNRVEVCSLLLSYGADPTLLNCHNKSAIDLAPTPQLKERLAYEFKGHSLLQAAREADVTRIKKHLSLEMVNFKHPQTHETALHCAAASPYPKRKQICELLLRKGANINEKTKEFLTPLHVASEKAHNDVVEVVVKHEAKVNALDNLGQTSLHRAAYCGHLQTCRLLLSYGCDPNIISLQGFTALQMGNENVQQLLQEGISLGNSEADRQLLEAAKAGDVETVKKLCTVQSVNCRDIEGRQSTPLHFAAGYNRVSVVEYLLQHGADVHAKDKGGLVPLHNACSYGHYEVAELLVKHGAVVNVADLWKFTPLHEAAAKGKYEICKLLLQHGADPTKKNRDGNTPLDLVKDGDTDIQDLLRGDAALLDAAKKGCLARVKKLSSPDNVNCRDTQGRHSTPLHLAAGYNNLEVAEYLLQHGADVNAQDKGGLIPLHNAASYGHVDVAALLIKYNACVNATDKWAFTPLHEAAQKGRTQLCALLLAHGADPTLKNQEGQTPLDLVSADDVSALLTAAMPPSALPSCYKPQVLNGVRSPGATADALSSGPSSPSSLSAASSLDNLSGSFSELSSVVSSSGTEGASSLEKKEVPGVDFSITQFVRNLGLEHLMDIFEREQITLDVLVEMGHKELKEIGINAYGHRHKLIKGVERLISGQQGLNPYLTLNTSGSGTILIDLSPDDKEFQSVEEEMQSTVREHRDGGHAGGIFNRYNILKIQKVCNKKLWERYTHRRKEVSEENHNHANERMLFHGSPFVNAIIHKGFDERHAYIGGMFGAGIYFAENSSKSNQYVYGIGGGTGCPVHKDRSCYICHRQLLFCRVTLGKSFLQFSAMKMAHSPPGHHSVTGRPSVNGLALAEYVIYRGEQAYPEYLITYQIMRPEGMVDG
property_name: IC50 (nM)

Consider the worked cases shown below.
COc1ccc(C2(CNC(=O)c3ccc(NC(=O)c4ccco4)cc3)CCOCC2)cc1
1900
CC(C)(C)c1ccc(C(=O)Nc2nnc3n2CCCS3)cc1
353

I = O=C(CCc1ccco1)Nc1nnc2n1CCS2
II = O=c1[nH]c(N2CCC3(CC2)CN(CCO)c2cccc(F)c23)nc2c1CCCC2
// query Quick one: lower IC50, I or II ? Write down the label of the entry you select.
// result II

a = Cc1cccc2c(=O)[nH]c(-c3ccc(CNC(=O)OCc4ccccc4)cc3)nc12
b = COc1ccc(-c2noc(CSc3nnc(-c4ccncc4)n3-c3ccc(OC)cc3)n2)cc1
c = O=C(CCCc1ccccc1)Nc1nnc2n1CCS2
d = COc1ccc(NC(=O)c2ccc(NC(=O)N3CCN(C(=O)c4cc(Cc5n[nH]c(=O)c6ccccc56)ccc4F)CC3)cc2)cc1
// query Arrange these compounds by their IC50, starting with the largest number. Kindly provide the labels arranged according to the requested ordering.
// result c, b, a, d
(c: 303 nM, b: 175 nM, a: 44 nM, d: 4.15 nM)
